These data points were gathered from paper PMC9860392.

- System name: T1, FL Twinkle (mitochondrial helicase) (Homo sapiens, UniProt Q96RR1 43-684)
- T1 sequence: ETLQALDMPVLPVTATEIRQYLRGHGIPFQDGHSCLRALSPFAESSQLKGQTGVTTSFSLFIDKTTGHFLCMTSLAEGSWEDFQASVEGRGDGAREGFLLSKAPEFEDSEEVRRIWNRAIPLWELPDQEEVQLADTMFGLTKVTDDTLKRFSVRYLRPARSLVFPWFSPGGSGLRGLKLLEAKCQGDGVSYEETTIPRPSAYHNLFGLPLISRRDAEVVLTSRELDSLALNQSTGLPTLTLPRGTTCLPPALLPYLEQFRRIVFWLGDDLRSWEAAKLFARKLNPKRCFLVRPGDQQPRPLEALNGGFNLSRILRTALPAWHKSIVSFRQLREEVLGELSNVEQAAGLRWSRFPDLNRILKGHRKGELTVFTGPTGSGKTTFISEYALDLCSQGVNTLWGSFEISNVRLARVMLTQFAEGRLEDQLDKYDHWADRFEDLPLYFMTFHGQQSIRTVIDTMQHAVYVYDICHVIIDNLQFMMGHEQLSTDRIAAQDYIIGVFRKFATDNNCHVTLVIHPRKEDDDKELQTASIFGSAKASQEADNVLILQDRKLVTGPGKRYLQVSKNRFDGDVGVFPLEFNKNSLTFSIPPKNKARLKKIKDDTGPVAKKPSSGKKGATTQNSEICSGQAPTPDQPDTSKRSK
- Test description: fluorescence anisotropy; 50 mM NaCl; 50 mM Tris acetate pH 7.5, 10% glycerol, 0.05% Tween-20, 0.5 mM DTT, 0 or 50 mM NaCl; 2.5 nM DNA; no Mg2+ or nucleotide listed; temperature not stated
- Condition context: protein: recombinant; tags: SUMO tag removed (ULP1); chain copies: 6; label: 3' fluorescein-T; single strand
Catalogue of log10(Kd) readings, one per entry.
Base-10 log of Kd, unit nM.

// worked examples, log10(Kd) included
In [3]: df
Out[3]:
                                     binder  measured_number
0      AACTCTTGAACACT (ssDNA) [14 nt ssDNA]             1.59
1  TGTGTTAGTTGGGGGGTGACTGTTAAAAGT (ssDNA) [30 nt ssDNA]             0.41
2        CTCTTGAACACT (ssDNA) [12 nt ssDNA]             1.72

Return log10(Kd) for the following binder: ATAACTCTTGAACACT (ssDNA) [16 nt ssDNA]
1.35

Please look at this binder and report its log10(Kd): TGCTATAACTCTTGAACACT (ssDNA) [20 nt ssDNA]
0.94
